test system: HT29 colon; test: NCI tumour cell line growth inhibition, 48 h
reportedMetric: GI50

chemicalStructure: COC1=C(C)C(=O)N2[C@@H]1[C@H](c1ccccc1)OC21C=CC(=O)C=C1
GI50: 1280 nM
//
chemicalStructure: CCOC(=O)c1cc(C(=O)c2cc(OC)cc(OC)c2)n2nc(C)ccc12
GI50: 401 nM
//
chemicalStructure: COc1cc(C(=O)/C=C/c2c(-c3cccs3)nc3sccn23)cc(OC)c1OC
GI50: 1120 nM
//
chemicalStructure: COc1ccc(/C=C/C(=O)c2c(O)c(C)c(O)c3c2OC2=CC(O)=C(C(C)=O)C(=O)[C@]23C)cc1
GI50: 860 nM
//
chemicalStructure: COc1cc(Nc2ncc3c(C)nc(-c4cccc(C(F)(F)F)c4)n3n2)cc(OC)c1OC
GI50: 4150 nM
//
chemicalStructure: O=C(c1ccc(Oc2ccccc2)cc1Cl)c1c[nH]c2ncnc(N[C@@H]3CC[C@@H](CO)OC3)c12
GI50: 43.4 nM
//
chemicalStructure: Cc1ccc(N(CC(=O)Nc2ccc(S(=O)(=O)NC3CCN(C)CC3)cc2)S(=O)(=O)c2ccc(Cl)cc2)cc1
GI50: 2880 nM
//
chemicalStructure: O=C1C(=O)/C(=C/c2ccccc2)CCCCCC/C1=C/c1ccccc1
GI50: 2040 nM

QUERY: Record "COc1cc(Nc2cc(O)c3c(=O)cc(-c4ccccc4)oc3c2)cc(OC)c1" : what is its GI50 with HT29 colon?
RESULT: 3330 nM
